# measurementProtocol: in vitro
# statedConditions: rat, cecal contents, pH 7.4
valueType: remaining at 1 h, 200 µM (%)
Please respond with the number in % and leave the unit unwritten.

### Prompt Dear colleague, I am looking for the recorded remaining at 1 h, 200 µM of the following compound: Cc1onc(NS(=O)(=O)c2ccccc2-c2ccc(-c3ncco3)cc2CN(C)C(=O)CC(C)(C)C)c1C
### Response 100

---

# measurementProtocol: Oral bioavailability in fasted male rats (intravenous and oral dosing)
# Format: in vivo
# statedConditions: rat, plasma, 10 umol/kg; intravenous, 10 μmol/kg as a 10 minute infusion, propylene glycol vehicle, fasted male rats (n=3); read-out: area under the curve AUC.infin.
valueType: AUC(0-inf) (µM·h)
Value expressed in µM·h; do not type the unit.

### Prompt # lookup: AUC(0-inf) of Cc1onc(NS(=O)(=O)c2ccccc2-c2ccc(-c3ncco3)cc2CN(C)C(=O)CC(C)(C)C)c1C
### Response 31.3

---

# measurementProtocol: Oral bioavailability in fasted male rats (intravenous and oral dosing)
# Format: in vivo
# statedConditions: rat, plasma, 20 umol/kg; oral gavage, 20 μmol/kg, PEG-400 vehicle, fasted male rats (n=3); read-out: area under the curve AUC.infin.
valueType: AUC(0-inf) (µM·h)
Give just the number in µM·h; leave the unit off.

### Prompt Any idea what AUC(0-inf) was measured for Cc1onc(NS(=O)(=O)c2ccccc2-c2ccc(-c3ncco3)cc2CN(C)C(=O)CC(C)(C)C)c1C ?
### Response 72.8
